Consider the following compounds; for each one, report its IC50.
molecular target: ovine COX-1 (Ovis aries)
Answers are plain numbers, in nM.

compound="CCOC(=O)CCC(=O)Nc1nccs1 [Compound 11]" reported_result=1700

// for each compound below, give its IC50
1. C/C(=C/C(=O)Nc1nccs1)Nc1ccccc1 [Compound 23a]
2. CC(=O)c1c(C)[nH]c(C(=O)Nc2nccs2)c1C [Compound 5b]

1: 6300; 2: 1300

---

biological target: PDE5 (Homo sapiens); experiment: Phosphodiesterase 5 enzyme activity assay; assay type: biochemical; conditions: 10 μM
PROPERTY NAME: effect on PDE5 activity (in words)

input_smiles=CC(=O)c1c(C)[nH]c(C(=O)Nc2nccs2)c1C property_name="effect on PDE5 activity (in words)" reported_result="very low activity"
input_smiles=CCOC(=O)CCC(=O)Nc1nccs1 property_name="effect on PDE5 activity (in words)" reported_result="very low activity"

---

Please respond with reported COX-2 S.I. (COX-1/COX-2) for every item in the list.
biological target: human recombinant COX-2 (Homo sapiens, UniProt P35354); assay: In vitro COX-2 inhibition, enzyme immunoassay; assay type: biochemical; conditions: IC50 (COX-1)/IC50 (COX-2)
Sequence (P35354 18-604): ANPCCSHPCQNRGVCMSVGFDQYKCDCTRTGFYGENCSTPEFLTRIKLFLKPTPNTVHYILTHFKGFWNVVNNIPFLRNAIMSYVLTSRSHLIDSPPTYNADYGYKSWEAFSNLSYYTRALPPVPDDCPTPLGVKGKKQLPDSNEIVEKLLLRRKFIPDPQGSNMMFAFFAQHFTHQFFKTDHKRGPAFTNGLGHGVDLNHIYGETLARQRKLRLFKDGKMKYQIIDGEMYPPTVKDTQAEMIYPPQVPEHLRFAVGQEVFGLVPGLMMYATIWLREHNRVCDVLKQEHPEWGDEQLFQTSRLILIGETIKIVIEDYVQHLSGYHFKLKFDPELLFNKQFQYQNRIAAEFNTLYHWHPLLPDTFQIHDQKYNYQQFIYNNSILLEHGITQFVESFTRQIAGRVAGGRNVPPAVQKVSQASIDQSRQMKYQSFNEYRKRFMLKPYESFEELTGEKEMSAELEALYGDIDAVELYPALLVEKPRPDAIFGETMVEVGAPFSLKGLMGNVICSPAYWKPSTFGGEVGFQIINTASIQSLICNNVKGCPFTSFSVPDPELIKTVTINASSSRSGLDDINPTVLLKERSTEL
One number for each entry.

Examples with answers:
molecule="C/C(=C/C(=O)Nc1nccs1)Nc1ccccc1 [Compound 23a]" reported_result=8.87
molecule="COc1ccc(N/C(C)=C\\C(=O)Nc2nccs2)cc1 [Compound 23b]" reported_result=10.25
molecule=CC(=O)c1c(C)[nH]c(C(=O)Nc2nccs2)c1C reported_result=5.4
molecule=CC(=O)C(=NO)C(=O)Nc1nccs1 reported_result=13.64

Please state COX-2 S.I. (COX-1/COX-2) for every molecule in the list that follows.
1. CCOC(=O)CCC(=O)Nc1nccs1
2. CCOC(=O)c1c(C)[nH]c(C(=O)Nc2nccs2)c1C
3. C/C(=C/C(=O)Nc1nccs1)Nc1ccc(Cl)cc1 [Compound 23c]
4. Cc1cc(O)n(-c2nccs2)n1
5. CC(=O)C(C(C)=O)C(=O)Nc1nccs1

[8.1, 16, 10.38, 10.06, 15.56]

---

Target: ovine COX-1 (Ovis aries, UniProt P05979)
Sequence (P05979 25-600): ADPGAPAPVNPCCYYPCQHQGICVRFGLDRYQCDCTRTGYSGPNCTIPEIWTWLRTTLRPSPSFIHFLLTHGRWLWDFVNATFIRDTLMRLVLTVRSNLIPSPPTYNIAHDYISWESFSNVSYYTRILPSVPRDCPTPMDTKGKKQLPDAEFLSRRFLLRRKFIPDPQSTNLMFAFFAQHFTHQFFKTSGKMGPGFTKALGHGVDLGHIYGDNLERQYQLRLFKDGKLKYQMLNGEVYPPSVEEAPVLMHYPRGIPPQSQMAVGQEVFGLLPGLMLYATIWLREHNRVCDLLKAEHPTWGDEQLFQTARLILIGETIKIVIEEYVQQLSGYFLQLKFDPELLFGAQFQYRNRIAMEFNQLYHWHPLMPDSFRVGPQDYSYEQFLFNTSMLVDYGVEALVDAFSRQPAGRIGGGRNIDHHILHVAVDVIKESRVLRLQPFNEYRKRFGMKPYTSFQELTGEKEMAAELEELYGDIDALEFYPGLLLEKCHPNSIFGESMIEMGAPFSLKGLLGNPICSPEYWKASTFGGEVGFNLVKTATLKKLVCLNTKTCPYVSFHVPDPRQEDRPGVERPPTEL
PROPERTY NAME: IC50 (µM)
Numbers only, in µM.

Example entries and their recorded answers appear below.
molecule="C/C(=C/C(=O)Nc1nccs1)Nc1ccc(Cl)cc1 [Compound 23c]" test_system="ovine COX-1 (Ovis aries, UniProt P05979)" unit_spec=µM reported_result=6.33
molecule="CC(=O)C(=NO)C(=O)Nc1nccs1 [Compound 2]" test_system="ovine COX-1 (Ovis aries, UniProt P05979)" unit_spec=µM reported_result=1.5

Below are some molecules; for each one, tell me its IC50.
1. CCOC(=O)c1c(C)[nH]c(C(=O)Nc2nccs2)c1C [Compound 5a]
2. COc1ccc(N/C(C)=C\C(=O)Nc2nccs2)cc1 [Compound 23b]
3. Cc1cc(O)n(-c2nccs2)n1 [Compound 7]
4. CC(=O)C(C(C)=O)C(=O)Nc1nccs1 [Compound 17]

1: 1.6; 2: 5.74; 3: 6.34; 4: 1.4

Attribution: paper PMC9056166
